# System: Normal human dermal fibroblasts (NHDF)
# test.details: In vitro phototoxicity test (neutral red) on NHDF
# Assay type: cell-based
# measurement.conditions: −UVA; 15.6 μmol/l
// NHDF viability lookup, one value per entry

{"columns": ["compound", "NHDF viability"],
 "data": [
  ["c1csc(CNc2ncnc3c2ncn3C2CCCO2)c1 (centres unmarked)", "100.5 % control"],
  ["c1nc(NCC2CCCO2)c2ncn(C3CCCO3)c2n1 (centres unmarked)", "99.6 % control"],
  ["OCc1ccc(CNc2ncnc3c2ncn3C2CCCO2)o1 (centres unmarked)", "104.2 % control"],
  ["Clc1nc(NCc2ccco2)c2ncn(C3CCCO3)c2n1 (centres unmarked)", "104.3 % control"],
  ["Clc1nc(NCC2CCCO2)c2ncn(C3CCCO3)c2n1 (centres unmarked)", "100.6 % control"]
]}

---

# Tested on: Normal human dermal fibroblasts (NHDF)
# test.details: In vitro phototoxicity test (neutral red) on NHDF
# Format: cell-based
# measurement.conditions: +UVA 5.0 J/cm^2; 31.3 μmol/l
measured.parameter: NHDF viability

{"columns": ["molecule", "measured.parameter", "recorded.measurement"],
 "data": [
  ["OCc1ccc(CNc2ncnc3c2ncn3C2CCCO2)o1 (centres unmarked)", "NHDF viability", "107.4 % control"],
  ["c1csc(CNc2ncnc3c2ncn3C2CCCO2)c1 (centres unmarked)", "NHDF viability", "105.9 % control"],
  ["c1nc(NCC2CCCO2)c2ncn(C3CCCO3)c2n1 (centres unmarked)", "NHDF viability", "109.5 % control"],
  ["Clc1nc(NCc2ccco2)c2ncn(C3CCCO3)c2n1 (centres unmarked)", "NHDF viability", "102.9 % control"],
  ["Clc1nc(NCC2CCCO2)c2ncn(C3CCCO3)c2n1 (centres unmarked)", "NHDF viability", "102.7 % control"]
]}

---

// HaCaT viability lookup, one value per entry
# Tested on: HaCaT
# test.details: In vitro phototoxicity test (neutral red) on HaCaT
# Assay type: cell-based, human
# measurement.conditions: +UVA 5.0 J/cm2; 125 μmol/l

{"columns": ["compound", "system", "unit.descriptor", "HaCaT viability"],
 "data": [
  ["Clc1nc(NCC2CCCO2)c2ncn(C3CCCO3)c2n1 (stereo not shown)", "HaCaT", "% control", 125.9],
  ["c1csc(CNc2ncnc3c2ncn3C2CCCO2)c1 (stereo not shown)", "HaCaT", "% control", 126.6],
  ["OCc1ccc(CNc2ncnc3c2ncn3C2CCCO2)o1 (stereo not shown)", "HaCaT", "% control", 124.66],
  ["Clc1nc(NCc2ccco2)c2ncn(C3CCCO3)c2n1 (stereo not shown)", "HaCaT", "% control", 104]
]}

---

# Tested on: Normal human dermal fibroblasts (NHDF)
# test.details: In vitro phototoxicity test (neutral red) on NHDF
# Type: cell-based
# measurement.conditions: −UVA; 125 μmol/l
# Protocol: […] [formula] • AS . . . absorbance of sample (cells pre-incubated with test compound in serum free medium and irradiated) • AC . . . absorbance of control (cells pre-incubated with DMSO in serum free medium and irradiated) • AB . . . absorbance of background (extraction solution)

{"columns": ["compound", "system", "NHDF viability, % control"],
 "data": [
  ["OCc1ccc(CNc2ncnc3c2ncn3C2CCCO2)o1 (centres unmarked)", "Normal human dermal fibroblasts (NHDF)", 110.4],
  ["Clc1nc(NCC2CCCO2)c2ncn(C3CCCO3)c2n1 (centres unmarked)", "Normal human dermal fibroblasts (NHDF)", 104],
  ["Clc1nc(NCc2ccco2)c2ncn(C3CCCO3)c2n1 (centres unmarked)", "Normal human dermal fibroblasts (NHDF)", 101.2],
  ["c1csc(CNc2ncnc3c2ncn3C2CCCO2)c1 (centres unmarked)", "Normal human dermal fibroblasts (NHDF)", 108.4],
  ["c1nc(NCC2CCCO2)c2ncn(C3CCCO3)c2n1 (centres unmarked)", "Normal human dermal fibroblasts (NHDF)", 109.7]
]}

---

# Test system: HaCaT
# test.details: In vitro phototoxicity test (neutral red) on HaCaT
# Type: cell-based, human
# measurement.conditions: −UVA; 62.5 μmol/l
// HaCaT viability lookup, one value per entry
measured.parameter: HaCaT viability (% control)

{"columns": ["molecule", "system", "recorded.measurement"],
 "data": [
  ["OCc1ccc(CNc2ncnc3c2ncn3C2CCCO2)o1 (stereo not shown)", "HaCaT", 106.4],
  ["Clc1nc(NCc2ccco2)c2ncn(C3CCCO3)c2n1 (stereo not shown)", "HaCaT", 109.2],
  ["c1csc(CNc2ncnc3c2ncn3C2CCCO2)c1 (stereo not shown)", "HaCaT", 103.9],
  ["Clc1nc(NCC2CCCO2)c2ncn(C3CCCO3)c2n1 (stereo not shown)", "HaCaT", 110.7]
]}

---

# Test system: Normal human dermal fibroblasts (NHDF)
# test.details: In vitro phototoxicity test (neutral red) on NHDF
# Assay type: cell-based
# measurement.conditions: −UVA; 31.3 μmol/l
measured.parameter: NHDF viability (% control)

{"columns": ["compound", "system", "recorded.measurement"],
 "data": [
  ["Clc1nc(NCC2CCCO2)c2ncn(C3CCCO3)c2n1 (centres unmarked) [Compound 20]", "Normal human dermal fibroblasts (NHDF)", 105.6],
  ["Clc1nc(NCc2ccco2)c2ncn(C3CCCO3)c2n1 (centres unmarked) [Compound 15]", "Normal human dermal fibroblasts (NHDF)", 105.4],
  ["OCc1ccc(CNc2ncnc3c2ncn3C2CCCO2)o1 (centres unmarked) [Compound 3]", "Normal human dermal fibroblasts (NHDF)", 107.7],
  ["c1nc(NCC2CCCO2)c2ncn(C3CCCO3)c2n1 (centres unmarked) [Compound 1]", "Normal human dermal fibroblasts (NHDF)", 102.4],
  ["c1csc(CNc2ncnc3c2ncn3C2CCCO2)c1 (centres unmarked) [Compound 9]", "Normal human dermal fibroblasts (NHDF)", 106.7]
]}

---

# Test system: Normal human dermal fibroblasts (NHDF)
# test.details: In vitro UVA/UVB photoprotection test on NHDF (Example 9)
# Assay type: cell-based
# measurement.conditions: UVB 150 mJ/cm^2, 3.9 μmol/l
// Protection (%) lookup, one value per entry

{"columns": ["compound", "Protection (%)"],
 "data": [
  ["Clc1nc(NCC2CCCO2)c2ncn(C3CCCO3)c2n1 (centres unmarked)", 39.8],
  ["Clc1nc(NCc2ccco2)c2ncn(C3CCCO3)c2n1 (centres unmarked)", 39.9],
  ["OCc1ccc(CNc2ncnc3c2ncn3C2CCCO2)o1 (centres unmarked)", 43.6],
  ["c1csc(CNc2ncnc3c2ncn3C2CCCO2)c1 (centres unmarked)", 34.9],
  ["O=C(/C=C/c1ccc(O)c(O)c1)O[C@H](Cc1ccc(O)c(O)c1)C(=O)O [RA, rosmarinic acid, reference compound]", 36.8]
]}

---

# Tested on: HaCaT
# test.details: In vitro phototoxicity test (neutral red) on HaCaT
# Type: cell-based, human
# measurement.conditions: −UVA; 3.9 μmol/l

{"columns": ["molecule", "unit.descriptor", "HaCaT viability"],
 "data": [
  ["Clc1nc(NCC2CCCO2)c2ncn(C3CCCO3)c2n1 (stereo not shown)", "% control", 103.5],
  ["Clc1nc(NCc2ccco2)c2ncn(C3CCCO3)c2n1 (stereo not shown)", "% control", 106.5],
  ["c1csc(CNc2ncnc3c2ncn3C2CCCO2)c1 (stereo not shown)", "% control", 101],
  ["OCc1ccc(CNc2ncnc3c2ncn3C2CCCO2)o1 (stereo not shown)", "% control", 100.1]
]}

---

// NHDF viability lookup, one value per entry
# Tested on: Normal human dermal fibroblasts (NHDF)
# test.details: In vitro phototoxicity test (neutral red) on NHDF
# Format: cell-based
# measurement.conditions: +UVA 5.0 J/cm^2; 62.5 μmol/l
measured.parameter: NHDF viability (% control)

{"columns": ["molecule", "system", "unit.descriptor", "recorded.measurement"],
 "data": [
  ["Clc1nc(NCC2CCCO2)c2ncn(C3CCCO3)c2n1 (centres unmarked) [Compound 20]", "Normal human dermal fibroblasts (NHDF)", "% control", 105.1],
  ["c1csc(CNc2ncnc3c2ncn3C2CCCO2)c1 (centres unmarked) [Compound 9]", "Normal human dermal fibroblasts (NHDF)", "% control", 102.8],
  ["OCc1ccc(CNc2ncnc3c2ncn3C2CCCO2)o1 (centres unmarked) [Compound 3]", "Normal human dermal fibroblasts (NHDF)", "% control", 110.49],
  ["c1nc(NCC2CCCO2)c2ncn(C3CCCO3)c2n1 (centres unmarked) [Compound 1]", "Normal human dermal fibroblasts (NHDF)", "% control", 103.3],
  ["Clc1nc(NCc2ccco2)c2ncn(C3CCCO3)c2n1 (centres unmarked) [Compound 15]", "Normal human dermal fibroblasts (NHDF)", "% control", 103.3]
]}

---

# Tested on: Normal human dermal fibroblasts (NHDF)
# test.details: In vitro phototoxicity test (neutral red) on NHDF
# Type: cell-based
# measurement.conditions: −UVA; 3.9 μmol/l
// NHDF viability lookup, one value per entry
measured.parameter: NHDF viability (% control)

{"columns": ["compound", "system", "unit.descriptor", "recorded.measurement"],
 "data": [
  ["c1csc(CNc2ncnc3c2ncn3C2CCCO2)c1 (centres unmarked) [Compound 9]", "Normal human dermal fibroblasts (NHDF)", "% control", 100],
  ["OCc1ccc(CNc2ncnc3c2ncn3C2CCCO2)o1 (centres unmarked) [Compound 3]", "Normal human dermal fibroblasts (NHDF)", "% control", 103],
  ["Clc1nc(NCC2CCCO2)c2ncn(C3CCCO3)c2n1 (centres unmarked) [Compound 20]", "Normal human dermal fibroblasts (NHDF)", "% control", 103.1],
  ["c1nc(NCC2CCCO2)c2ncn(C3CCCO3)c2n1 (centres unmarked) [Compound 1]", "Normal human dermal fibroblasts (NHDF)", "% control", 96.6],
  ["Clc1nc(NCc2ccco2)c2ncn(C3CCCO3)c2n1 (centres unmarked) [Compound 15]", "Normal human dermal fibroblasts (NHDF)", "% control", 100.3]
]}
